# Tested on: MDA-MB-435 melanoma
# ASSAY_PROCEDURE: NCI-60 one-dose screen, 48 h (100 = growth as untreated, 0 = no growth, -100 = all killed)
# PARTICULARS: 10 µM unless noted
The panel holds about 83,000 compounds, 20% with a hit somewhere; the sample as a whole holds those more often.
// growth lookup, one value per entry

| MOLECULE | TARGET_UNDER_TEST | growth (%) |
| --- | --- | --- |
| CCN(CC)CCC(CNc1c2ccc(Cl)cc2nc2ccc(OC)cc12)c1ccccc1 (stereo unspecified) | MDA-MB-435 melanoma | -80.4 |
| CCC(=O)Oc1ccc(/C(=C(/C)Cc2cccc(OC)c2)c2ccc(OCCN(C)C)cc2)cc1 | MDA-MB-435 melanoma | 9.82 |
| COc1ccc(Nc2ncccc2C(=O)NCc2cn(Cc3cccc(Oc4ccccc4)c3)nn2)cc1 | MDA-MB-435 melanoma | -16.3 |
| N=C(N)c1ccc(-c2ccc(-c3ccc4ccccc4c3)s2)cc1 | MDA-MB-435 melanoma | 36.6 |
| CCCCCCCCCCCCCCCCCCNC(=O)[C@H]1CSC(c2ccc(OC)cc2O)N1 (stereo partly specified) | MDA-MB-435 melanoma | 25.4 |
| COc1cc2c(cc1OCCCN1CCN(CCCn3c4ccccc4c4ccccc43)CC1)N=C[C@@H]1CCCN1C2=O | MDA-MB-435 melanoma | -80.5 |
| COc1cc(-c2nn(-c3cccc(NC(=O)Nc4cccc(C(F)(F)F)c4)c3)cc2-c2ccncc2)ccc1Cl | MDA-MB-435 melanoma | -50 |
| CCCCC(CC)OC(=O)C(Br)CC (stereo unspecified) | MDA-MB-435 melanoma | 109 |
| Cn1cnc2c(N3CCN(C(=O)OCc4ccc5c(Cl)cc(Cl)c(O)c5n4)CC3)nc(Cl)nc21 | MDA-MB-435 melanoma | 67.5 |
| CC1CN(c2oc(-c3ccccc3)nc2C#N)CC(C)O1 (stereo unspecified) | MDA-MB-435 melanoma | 103 |
| CCCCCCCCCCCCCCCCNC(=O)OC(C)C | MDA-MB-435 melanoma | 68.5 |
| COc1ccc(C(=O)N2NC(=O)/C(=C/c3ccccc3F)N=C2c2ccccc2)cc1 | MDA-MB-435 melanoma | 106 |
| Nc1nc(=O)c2ccccc2s1 | MDA-MB-435 melanoma | 102 |
| O=C1NN(C(=O)c2ccc(Cl)cc2)C(c2ccccc2)=N/C1=C\c1cn(-c2ccccc2)nc1-c1ccccc1 | MDA-MB-435 melanoma | 71.4 |
| O=C(O)c1nc(-c2ccccc2)oc1N1CCOCC1 | MDA-MB-435 melanoma | 97.5 |
| CCN(CC)CCCNc1nccc2ccc(Cl)cc12 | MDA-MB-435 melanoma | 103 |
| CCC(C)/C(=C\C#N)NCCCN/C(=C/C#N)C(C)CC (stereo unspecified) | MDA-MB-435 melanoma | 105 |
| COc1cc(/C=C/C(=O)N2CCN(C(=O)/C=C/c3cc(OC)c(OC)c(OC)c3)CC2)cc(OC)c1OC | MDA-MB-435 melanoma | 115 |
| Cc1cc(N)n(S(=O)(=O)c2oc(-c3ccccc3)nc2C#N)n1 | MDA-MB-435 melanoma | 91.8 |
| O=C([O][Sn]([O]C(=O)c1ccccn1)([c]1ccccc1)[c]1ccccc1)c1ccccn1 | MDA-MB-435 melanoma | 80.6 |
| Nc1cc2c([nH]c[n+]2CC#CCCl)c(SCC#CCCl)n1 | MDA-MB-435 melanoma | -34.2 |
| C=C1CCC2C3(C)COC(c4c(OC)cccc4OC)OC3CCC2(C)C1C/C=C1/C(=O)OCC1O (stereo unspecified) | MDA-MB-435 melanoma | 19.4 |
| O=C1Nc2ccc3c(c2/C1=C\c1cc2c(cc1Br)OCO2)OCO3 | MDA-MB-435 melanoma | -38.7 |
| Clc1cc(Cl)cc(-c2ccc(-c3ccc(/C=N/NC4=NCCN4)cc3)s2)c1 | MDA-MB-435 melanoma | 25.8 |
| c1coc(CNc2ccnc(Nc3ccc(OCCN4CCCCC4)cc3)n2)c1 | MDA-MB-435 melanoma | 95.5 |
| COc1cc(Nc2nc(N[C@H]3CCCC[C@@H]3N)nc3cc[nH]c(=O)c23)cc(OC)c1 | MDA-MB-435 melanoma | 33.4 |
| N/C(=N\C(N)=N\c1nc2ccccc2s1)c1ccncc1 | MDA-MB-435 melanoma | 1.82 |
| CCN(CC)CCOc1ccc(Cl)c(C)c1 | MDA-MB-435 melanoma | 106 |
| C=C1c2nc3ccccc3n2C=C(c2ccc(Cl)cc2)N1Cc1ccccc1 | MDA-MB-435 melanoma | 98.1 |
| NC(=O)c1c(NC(=S)Nc2ccc(OC(F)(F)F)cc2)sc2c1CCC1(C2)OCCO1 | MDA-MB-435 melanoma | 81.6 |
| CCCCOc1ccc(/C=C2/SC(N3CCOCC3)=NC2=O)cc1OCC | MDA-MB-435 melanoma | 99.6 |
| O=S(=O)(NCCCNc1nccc(-n2ccc3cccnc32)n1)c1ccc(Br)cc1 | MDA-MB-435 melanoma | 107 |
| Cc1ccc(N2CCN(C(C)C(N)=O)CC2)cc1 (stereo unspecified) | MDA-MB-435 melanoma | 114 |
| CC(NNC(C)c1ccccc1)c1ccccc1 (stereo unspecified) | MDA-MB-435 melanoma | 112 |
| CCO/C=N/C1=C(C#N)C(c2ccc(Cl)cc2)c2c(c3ccc(C)cc3[nH]c2=O)O1 (stereo unspecified) | MDA-MB-435 melanoma | 90.7 |
| Cc1ccc(-c2cc3nc(-c4ccccc4)nc(C(Cl)Cl)n3n2)cc1 | MDA-MB-435 melanoma | -68.3 |
